This listing pairs molecules with measured IC50.
test system: MOLM-13 cells; test: MOLM-13 96 Hour cell proliferation assay (Cell Titer-Glo); type: cell-based; conditions: Homo sapiens
experimental readout: IC50

molecule	experimental readout	reading
CCNc1ccc2ccc(OCc3cncc(-n4cc([C@H]5CCCO5)c5c(N)ncnc54)c3)cc2n1 [Compound I-134]	IC50	< 1 µM
Cc1cc(N)c2ccc(OCc3cncc(-n4ccc5c(N)ncnc54)c3)cc2n1 [Compound I-48]	IC50	≥ 10 µM
CCc1cc(N2CCOCC2)c2ccc(OCc3cncc(-n4ccc5c(N)ncnc54)c3)cc2n1 [Compound I-108]	IC50	1 to 10 µM
CCNc1ccc2ccc(OCc3cncc(-n4cc(-c5ccn(C)n5)c5c(N)ncnc54)c3)cc2n1 [Compound I-128]	IC50	1 to 10 µM
Cn1ccc(-c2cn(-c3cncc(COc4ccc5ccc(N6CC(F)(F)C6)nc5c4)c3)c3ncnc(N)c23)n1 [Compound I-212]	IC50	1 to 10 µM
CNc1cc(CCCN2CCOCC2)c2ccc(OCc3cncc(-n4ccc5c(N)ncnc54)c3)cc2n1 [Compound I-233]	IC50	1 to 10 µM
CS(=O)(=O)c1cn(-c2cncc(COc3ccc4ccc(N5CCC5)nc4c3)c2)c2ncnc(N)c12 [Compound I-185]	IC50	1 to 10 µM
CNc1ccc2ccc(OCc3cncc(-n4cc(C5CCCC5)c5c(N)ncnc54)c3)cc2n1 [Compound I-58]	IC50	< 1 µM
Cn1ccc(-c2cn(-c3cncc(COc4ccc5ccc(N6CC(F)C6)nc5c4)c3)c3ncnc(N)c23)n1 [Compound I-192]	IC50	< 1 µM
Cn1ccc(-c2cn(-c3cncc(COc4ccc5ccc(N6CC(N)C6)nc5c4)c3)c3ncnc(N)c23)n1 [Compound I-213]	IC50	< 1 µM
CCNc1ccc2ccc(OCc3cccc(-n4cc(Cl)c5c(N)ncnc54)c3)cc2n1 [Compound I-61]	IC50	1 to 10 µM
CN(C)CCNc1cc(C2CCC2)nc2cc(OCc3cncc(-n4ccc5c(N)ncnc54)c3)ccc12 [Compound I-92]	IC50	< 1 µM
CCc1cc(N2CCNCC2)c2ccc(OCc3cncc(-n4cc([C@@H]5CCCO5)c5c(N)ncnc54)c3)cc2n1 [Compound I-149]	IC50	1 to 10 µM
CCc1cc(N2CCC(F)(F)CC2)c2ccc(OCc3cncc(-n4ccc5c(N)ncnc54)c3)cc2n1 [Compound I-118]	IC50	1 to 10 µM
CCc1cc(NCCOC)c2ncc(CCc3cncc(-n4cc(-c5ccn(C)n5)c5c(N)ncnc54)c3)cc2n1 [Compound I-132]	IC50	< 1 µM
CNc1ccc2cc(CCc3cccc(-n4cc(Cl)c5c(N)ncnc54)c3)ccc2n1 [Compound I-70]	IC50	1 to 10 µM
CNc1ccc2ccc(OCc3cncc(-n4cc(-c5ccc(C)o5)c5c(N)ncnc54)c3)cc2n1 [Compound I-234]	IC50	1 to 10 µM
CCc1cc(NCCN(C)C)c2c(F)cc(CCc3cncc(-n4cc(-c5ccn(C)n5)c5c(N)ncnc54)c3)cc2n1 [Compound I-227]	IC50	< 1 µM
CCc1cc(NCCOC)c2ccc(OCc3cncc(-n4cc([C@@H]5CCCO5)c5c(N)ncnc54)c3)cc2n1 [Compound I-141]	IC50	< 1 µM
CC(C)c1cc(N2CCC2)c2ccc(OCc3cncc(-n4ccc5c(N)ncnc54)c3)cc2n1 [Compound I-99]	IC50	< 1 µM
CCc1cc(N2CCOCC2)c2ccc(OCc3cncc(-n4cc([C@@H]5CCCO5)c5c(N)ncnc54)c3)cc2n1 [Compound I-143]	IC50	< 1 µM
CCc1cc(N(C)C)c2ccc(OCc3cncc(-n4cc(-c5ccn(C)n5)c5c(N)ncnc54)c3)cc2n1 [Compound I-147]	IC50	< 1 µM
Nc1ncnc2c1c(C1CCCO1)cn2-c1cncc(CCc2ccc3ccc(N4CCC4)nc3c2)c1 (centres unmarked) [Compound I-126]	IC50	1 to 10 µM
Cn1ccc(-c2cn(-c3cncc(COc4ccc5ccc(N6CC(=O)C6)nc5c4)c3)c3ncnc(N)c23)n1 [Compound I-217]	IC50	1 to 10 µM
CCc1cc(NCCOC)c2c(F)cc(CCc3cncc(-n4cc(-c5ccn(C)n5)c5c(N)ncnc54)c3)cc2n1 [Compound I-228]	IC50	< 1 µM
CCc1cc(N(C)C2CC2)c2ccc(OCc3cncc(-n4cc(-c5ccn(C)n5)c5c(N)ncnc54)c3)cc2n1 [Compound I-136]	IC50	< 1 µM
CCc1cc(N2CCOCC2)c2ccc(OCc3cncc(-n4cc([C@H]5CCCO5)c5c(N)ncnc54)c3)cc2n1 [Compound I-142]	IC50	< 1 µM
Cc1nc(-c2cn(-c3cncc(COc4ccc5ccc(N6CCC6)nc5c4)c3)c3ncnc(N)c23)co1 [Compound I-239]	IC50	1 to 10 µM
CNc1ccc2ccc(OCc3cncc(-n4cc([C@H]5CCCO5)c5c(N)ncnc54)c3)cc2n1 [Compound I-112]	IC50	< 1 µM

---

molecular target: METTL3/METTL14 (Homo sapiens); assay: METTL3-14 standard enzyme assay (3H-SAM flashplate scintillation); details: METTL3/METTL14 2.5 nM, RNA 100 nM, 3H-SAM 100 nM, 30 min
Sequence (Q86U44 whole entry, species assumed): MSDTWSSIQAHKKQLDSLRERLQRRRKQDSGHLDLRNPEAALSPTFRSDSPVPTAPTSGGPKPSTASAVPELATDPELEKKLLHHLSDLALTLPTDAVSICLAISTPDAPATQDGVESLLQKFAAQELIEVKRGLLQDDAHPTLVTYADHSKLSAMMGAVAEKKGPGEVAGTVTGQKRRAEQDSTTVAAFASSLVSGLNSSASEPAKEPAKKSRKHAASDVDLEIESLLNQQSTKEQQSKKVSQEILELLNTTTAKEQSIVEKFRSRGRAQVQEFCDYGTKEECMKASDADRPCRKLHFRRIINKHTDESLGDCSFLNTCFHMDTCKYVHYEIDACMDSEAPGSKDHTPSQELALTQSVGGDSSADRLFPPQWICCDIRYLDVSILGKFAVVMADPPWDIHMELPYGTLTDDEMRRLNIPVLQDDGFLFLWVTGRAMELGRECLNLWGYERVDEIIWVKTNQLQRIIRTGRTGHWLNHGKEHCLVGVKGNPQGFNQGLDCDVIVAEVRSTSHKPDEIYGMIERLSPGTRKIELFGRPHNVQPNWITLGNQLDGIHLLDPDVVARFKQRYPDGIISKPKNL
Sequence (Q9HCE5 whole entry partner, species assumed): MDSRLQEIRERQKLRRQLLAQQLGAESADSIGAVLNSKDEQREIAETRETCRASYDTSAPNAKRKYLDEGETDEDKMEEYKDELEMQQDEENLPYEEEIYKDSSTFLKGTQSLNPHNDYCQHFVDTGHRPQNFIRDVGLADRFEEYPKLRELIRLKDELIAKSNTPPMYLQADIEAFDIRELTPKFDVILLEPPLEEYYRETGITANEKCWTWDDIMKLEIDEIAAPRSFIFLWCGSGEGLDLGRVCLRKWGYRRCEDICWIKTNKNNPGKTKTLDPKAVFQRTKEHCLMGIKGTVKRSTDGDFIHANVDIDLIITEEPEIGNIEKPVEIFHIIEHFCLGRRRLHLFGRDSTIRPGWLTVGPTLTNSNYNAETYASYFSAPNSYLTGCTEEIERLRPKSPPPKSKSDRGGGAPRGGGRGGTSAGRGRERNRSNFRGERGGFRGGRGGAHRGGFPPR
pIC50: −log10 of the molar value. Where a name gives a salt, the structure may show the parent alone.
# key: entry, value: pIC50
experimental readout: pIC50

compound	experimental readout	reading
CN(C)C(=O)c1ccc(OCc2cncc(-n3cc(-c4ccn(C)n4)c4c(N)ncnc43)c2)cc1N [Compound I-177]	pIC50	< 6.00
CNc1ccc2ccc(OCc3nc(-n4cc(Cl)c5c(N)ncnc54)cs3)cc2n1 [Compound I-37]	pIC50	7.00 to 8.00
Cn1ccc(-c2cn(-c3cncc(COc4ccc5ccc(N6CCOCC6=O)nc5c4)c3)c3ncnc(N)c23)n1 [Compound I-214]	pIC50	< 6.00
Cc1cc(N)c2ccc(OCc3cncc(-n4ccc5c(N)ncnc54)c3)cc2n1 [Compound I-48]	pIC50	6.00 to 7.00
Nc1cc(OCc2cncc(-n3ccc4c(N)ncnc43)c2)ccc1C(=O)N1CCNCC1 [Compound I-215]	pIC50	< 6.00
CCc1cc(NCCN(C)C)c2c(F)cc(CCc3cncc(-n4cc(-c5ccn(C)n5)c5c(N)ncnc54)c3)cc2n1 [Compound I-227]	pIC50	> 8.00
CNc1ccc2ccc(CCc3cncc(-n4cc(-c5ccn(C)n5)c5c(N)ncnc54)c3)cc2n1 [Compound I-1]	pIC50	> 8.00
CNc1ccc2ccc(CNc3cccc(-n4cc(Br)c5c(N)ncnc54)c3)cc2n1 [Compound I-72]	pIC50	6.00 to 7.00
Cn1ccc(-c2cn(-c3cncc(COc4ccc(-c5ncco5)c(N)c4)c3)c3ncnc(N)c23)n1 [Compound I-211]	pIC50	< 6.00
CC1COc2ccc(OCc3cncc(-n4cc(-c5ccn(C)n5)c5c(N)ncnc54)c3)cc2N1 (stereo not drawn) [Compound I-171]	pIC50	< 6.00
CCNc1ccc2ccc(CCc3cncc(-n4cc([C@@H]5CCCO5)c5c(N)ncnc54)n3)cc2n1 [Compound I-140]	pIC50	> 8.00
CNc1ccc2ccc(OCc3cncc(-n4cc([C@H]5CCCO5)c5c(N)ncnc54)c3)cc2n1 [Compound I-112]	pIC50	> 8.00
CCc1cc(NCCOC)c2c(F)cc(OCc3cncc(-n4cc(-c5ccn(C)n5)c5c(N)ncnc54)c3)cc2n1 [Compound I-229]	pIC50	> 8.00
Cn1ccc(-c2cn(-c3cncc(CS(=O)(=O)c4ccc5ccc(N6CCC6)nc5c4)c3)c3ncnc(N)c23)n1 [Compound I-220]	pIC50	< 6.00
CNc1ccc2ccc(OCc3cccc(-n4cc(C5CC5)c5c(N)ncnc54)c3)cc2n1 [Compound I-73]	pIC50	7.00 to 8.00
CNc1ccc2ccc(OCc3cncc(-n4cc(C5CCN(C)CC5)c5c(N)ncnc54)c3)cc2n1 [Compound I-33]	pIC50	6.00 to 7.00
CNc1ccc2ccc(OCc3cncc(-n4ccc5c(N)nc(N)nc54)c3)cc2n1 [Compound I-56]	pIC50	6.00 to 7.00
CC(C)c1cc(N2CCC2)c2ccc(OCc3cncc(-n4ccc5c(N)ncnc54)c3)cc2n1 [Compound I-99]	pIC50	> 8.00
C[S+]([O-])c1cn(-c2cncc(COc3ccc4ccc(N5CCC5)nc4c3)c2)c2ncnc(N)c12 (stereo not drawn) [Compound I-173]	pIC50	6.00 to 7.00
Cn1ccc(-c2cn(-c3cncc(CCc4ccc5cc(Br)c(N)nc5c4)c3)c3ncnc(N)c23)n1 [Compound I-123]	pIC50	< 6.00
Nc1ncnc2c1ccn2-c1csc(COc2ccc3ccc(N4CCCC4)nc3c2)n1 [Compound I-54]	pIC50	6.00 to 7.00
CCNc1ccc2ccc(OCc3cncc(-n4cc([C@H]5CCCO5)c5c(N)ncnc54)c3)cc2n1 [Compound I-134]	pIC50	> 8.00
CNc1ccc2ccc(OCc3cc(-n4cc(Cl)c5c(N)ncnc54)cnc3N)cc2n1 [Compound I-28]	pIC50	7.00 to 8.00
Cn1ccc(-c2cn(-c3cncc(COc4ccc5ccc(N6CC(=O)C6)nc5c4)c3)c3ncnc(N)c23)n1 [Compound I-217]	pIC50	> 8.00
CNc1ccc2ccc(OCc3cncc(-n4cc(CC5CC5)c5c(N)ncnc54)c3)cc2n1 [Compound I-29]	pIC50	> 8.00
Nc1ncnc2c1c(Cl)cn2-c1csc(COc2ccc3ccc(N4CCCC4)nc3c2)n1 [Compound I-23, hydrochloride]	pIC50	< 6.00
CNc1ccc2ccc(OCc3cncc(-n4cc(C)c5c(N)ncnc54)c3)cc2n1 [Compound I-17]	pIC50	> 8.00
Cn1ccc(-c2cn(-c3cncc(CCc4ccc5ccc(N6CCC6)nc5c4)c3)c3ncnc(N)c23)n1 [Compound I-104]	pIC50	> 8.00
CCCc1cc(N)c2ccc(CCc3cncc(-n4cc(-c5ccn(C)n5)c5c(N)ncnc54)c3)cc2n1 [Compound I-131]	pIC50	> 8.00
CC(C)c1cc(N)c2ccc(OCc3cncc(-c4c[nH]c5c(N)ncnc45)c3)cc2n1 [Compound I-101]	pIC50	> 8.00

Source: patent US20220372040A1
